FYI, the data here is from PubChem BioAssay (NCI).

System: UACC-62 melanoma
Experimental protocol: NCI tumour cell line growth inhibition, 48 h
Here, each record is paired with measured TGI data.
I only need the number, in µM, no unit after it.

// sample Cc1ccc2oc(=O)cc(C3c4ccc([nH]4)C(c4cc(=O)oc5ccc(C)cc45)c4ccc([nH]4)C(c4cc(=O)oc5ccc(C)cc45)c4ccc([nH]4)C(c4cc(=O)oc5ccc(C)cc45)c4ccc3[nH]4)c2c1 (stereo not given) , its TGI was 0.8

// sample `COc1ccc(Cn2c3c(c4c(O)cccc42)C(=O)c2ccccc2-3)cc1` , its TGI was 30.1

// sample `CO[C@H]1/C=C/C[C@H](C)[C@@H](C)S(=O)(=O)NC(=O)c2ccc3c(c2)N(C[C@@H]2CC[C@H]21)C[C@@]1(CCCc2cc(Cl)ccc21)CO3` , its TGI was 2.46

###

Here, each record is paired with measured TGI data.
System: K-562 leukemia
Experimental protocol: NCI tumour cell line growth inhibition, 48 h

Previously resolved entries follow.
Molecule	Recorded endpoint	Result
O=C(O)c1ccc(/C=N\N(CCO)C2=NCCN2)cc1	TGI	> 100 µM
ClC1=C(Cl)C(Cl)=C(Cl)C1=Cc1ccc(Cl)cc1Cl	TGI	2 µM
C#CCOc1cccc(Nc2ncnc3c2ncn3C2CCN(C(=O)CCl)C2)c1 (stereo unspecified)	TGI	> 100 µM
CC(C)c1ccc(O)c(O)c(=O)c1 (tested in a mixture with another compound)	TGI	> 100 µM
CN(C)C(=O)CO/N=C1/C(c2c(O)[nH]c3ccccc23)=Nc2ccccc21	TGI	> 100 µM

// sample `CC1(C)N=C(/C(C#N)=[N+](/[O-])C(=O)c2ccccc2)C(C)(C)N1O` , its TGI was > 100 µM

###

Test system: MOLT-4 leukemia
Experimental protocol: NCI tumour cell line growth inhibition, 48 h
Recorded endpoint: TGI (µM)
I only need the number, in µM, no unit after it.

// sample `O=C1C(Nc2cccc(O)c2)=C(Sc2ccc(Cl)cc2)C(=O)N1Cc1ccccc1` , its TGI was 28.3

// sample `CN(C)Cc1cc(C(=O)/C=C/c2c(F)cccc2Cl)cc(CN(C)C)c1O` , its TGI was 66.1

###

Test system: HOP-62 NSCLC
Experimental protocol: NCI tumour cell line growth inhibition, 48 h; in the data active = GI50 below about 0.43 µM; inactive = the rest
Assign a class; possible classes are Y = active, N = inactive

Examples with answers:
CSc1ccc(C(=O)/C=C/c2ccc(F)cc2)cc1 N
NCCCn1c2c(c3ccc([N+](=O)[O-])cc3c1=O)C(=O)c1cc(Cl)ccc1-2 Y
C=C(CN(CCN1CCOCC1)CC(=C)c1ccc(C(=O)Nc2ccccc2N)cc1)c1ccc(C(=O)Nc2ccccc2N)cc1 N
Cc1ccc(C(=O)Nc2ccccc2C(=O)N/N=C(\c2ccccc2)c2ccccn2)cc1 Y

Data request: Please let me know the test result on file for `COc1cc2c(cc1-c1c(C)noc1C)ncc1[nH]c(=O)n([C@H](C)c3ccccn3)c12` .
Data returned: N

###

Here, each record is paired with measured TGI data.
Test system: SF-268 CNS
Experimental protocol: NCI tumour cell line growth inhibition, 48 h
Where a SMILES comes first, the peptide text is derived from it. [ ]: non-standard residue; d: D form. The star is where a group is joined. X28 = COC1=CC(=O)N(C(=O)[C@@H](O*)C(C)C)[C@H]1Cc1ccccc1; NMeL = CN[C@@H](CC(C)C)C(=O)O; Cbz = O=C(OCc1ccccc1)*

Previously resolved entries follow.
Compound	TGI
Cc1noc(C)c1N=Nc1ccc2nonc2c1N	> 100 µM
CSc1ccc(C(=O)/C=C/c2ccc(F)cc2)cc1	> 100 µM
CCN1CCC(O)(c2ccc(Cl)c(Cl)c2)C(C(=O)c2ccc(Cl)c(Cl)c2)C1 (configuration not stated)	38.6 µM

Result for `CCCCCCCCCCCCOC(=S)NC` , tested on SF-268 CNS, TGI: 36 µM

Result for `Cc1cc(C)c(N)c(C)c1N` , tested on SF-268 CNS, TGI: > 100 µM

Result for `CCOC(=O)CC(=Nc1cc(C)on1)N(CC)CC` , tested on SF-268 CNS, TGI: > 100 µM

Result for `CC(C)[C@H](O)C(=O)N[C@H]1Cc2ccc3c(c2)[C@]24C5=C(N=C(O5)[C@H](C(C)C)NC1=O)c1nc(Cl)c(o1)-c1c(Cl)[nH]c5cccc(c15)-c1cccc2c1N[C@H]4O3` , tested on SF-268 CNS, TGI: 7.32 µM

Result for COC1=CC(=O)N(C(=O)[C@@H](OC(=O)[C@@H]2CCCN2C(=O)[C@@H]2CCCN2C(=O)[C@H](CC(C)C)N(C)C(=O)[C@@H](NC(=O)[C@@H](NC(=O)OCc2ccccc2)C(C)C)C(C)C)C(C)C)[C@H]1Cc1ccccc1 (Cbz-VV[NMeL]PP-X28) , tested on SF-268 CNS, TGI: > 100 µM

Result for `O=C(Nc1ccc([N+](=O)[O-])cc1)c1cc2ccccc2cc1O` , tested on SF-268 CNS, TGI: 15.2 µM

Result for CCOC(=O)C1CCn2c(nc3c(=O)n(C)c(=O)n(C)c32)S1 (configuration not stated) , tested on SF-268 CNS, TGI: > 100 µM

Result for CCC(c1nc2ccccc2c(=O)n1NC(=O)C(C)(C)C)C1(O)CCCCC1 (configuration not stated) , tested on SF-268 CNS, TGI: > 100 µM

Result for CCC(C)c1cnc(CC(C)C)c(=O)[nH]1 (configuration not stated) , tested on SF-268 CNS, TGI: > 100 µM

Result for `CCOC(=O)c1cn2ncnc(Oc3ccc(NC(=O)NCCN(CC)CC)c(Cl)c3)c2c1C` , tested on SF-268 CNS, TGI: 6.58 µM

Result for CC(Nc1cc(=O)n(C)c(=O)[nH]1)c1ccccc1 (configuration not stated) , tested on SF-268 CNS, TGI: > 100 µM

Result for `C=C1C(=O)O[C@H]2[C@H]1CC/C(COC(=O)NCc1cccc(OC)c1)=C\CC[C@@]1(C)O[C@@H]21` , tested on SF-268 CNS, TGI: 12.1 µM

Result for `CN(C)Cc1cc(C(=O)/C=C/c2c(F)cccc2Cl)cc(CN(C)C)c1O` , tested on SF-268 CNS, TGI: 23.5 µM

Result for `COc1ccc(-c2cc(-c3ccc(Nc4ccnc5cc(C(F)(F)F)ccc45)cc3)[nH]c(=O)c2C#N)cc1` , tested on SF-268 CNS, TGI: > 88.6 µM

Result for `COc1cc(C(=C2SCCS2)c2nccc3cc(OC)c(OC)cc23)c([N+](=O)[O-])cc1OC` , tested on SF-268 CNS, TGI: > 100 µM

Result for `CC(=O)[CH-]C(=O)c1ccccc1.CC(=O)[CH-]C(=O)c1ccccc1.CC[O-].O=C1C=C([O-])C(=O)c2ccccc21.[Ti+4]` , tested on SF-268 CNS, TGI: > 100 µM
